Where these numbers come from: PubChem BioAssay (NCI)

# Test system: NCI-H23 lung
# Assay Summary: NCI-60 one-dose screen, 48 h (100 = growth as untreated, 0 = no growth, -100 = all killed)
# Measurement Conditions: 10 µM unless noted
The panel holds about 83,000 compounds, 20% with a hit somewhere; the sample as a whole holds those more often.
With a cut-off of 70%, any growth strictly below it is called True; any growth meeting it or above is called False.

These recorded examples may help you get a feel for the data.
Given `CCN(CC)c1ccc(N2C(=O)/C(=C/c3cccs3)SC2=S)cc1` , is recorded growth strictly lower than 70%? False

Record: `C/C(=N\Nc1nc(C)cs1)c1cc2ccccc2o1` False

Record: `COC(=O)C1=Nc2ccc(F)cc2/C1=C\c1sc(Nc2ccc(O)cc2)nc1O` False

Continuing:
Given `COc1ccc(/C(C)=C(\c2ccc(OCCN3CCCCCC3)cc2)c2ccc(OC(=O)c3ccccc3)cc2)cc1` , is recorded growth strictly lower than 70%? True

Record: `O=S(=O)(c1ccccc1)N1CCCN(c2nc(-c3ccccc3)nc3nc(-c4ccccc4)oc23)CC1` False

Record: `Cc1nc2ccccc2c(/C=C/c2ccc(C(F)(F)F)cc2)c1C(=O)/C=C/c1ccccc1` True

----------
# System: HS 578T breast
# Assay Summary: NCI-60 one-dose screen, 48 h
# Measurement Conditions: 10 µM unless noted
Compounds without any hit were thinned out: in the full panel of roughly 83,000, 20% have a hit. Calls of active or inactive are those of the source. The calls were made as follows: active = growth percent below 10; inactive = the rest.
Returns: one label drawn from active, inactive

GET /call?item= `Cc1ccc(-c2csc(NC(=O)N3CCN(c4cc5c(cc4F)c(=O)c(C(=O)O)cn5C4CC4)CC3)n2)cc1` returns the recorded outcome of this test. inactive

Record: `Fc1ccc(CNc2c3ccccc3nc3ccccc23)cc1` inactive

Record: `O=C1NC(=O)c2c1c1c3ccccc3[nH]c1c1oc3ccc(F)cc3c21` inactive

Record: `CN1CCN(CCCOC(=O)c2c3c(n4ccccc24)C(=O)c2ncccc2C3=O)CC1` active

Continuing:
GET /call?item= `O=C(O)c1cn(C2CC2)c2cc(N3CCN(C(=O)N/N=C/c4ccccc4)CC3)c(F)cc2c1=O` returns the recorded outcome of this test. inactive

----------
# Test system: SK-MEL-2 melanoma
# Assay Summary: NCI-60 one-dose screen, 48 h
# Measurement Conditions: 10 µM unless noted
The panel holds about 83,000 compounds, 20% with a hit somewhere; the sample as a whole holds those more often. Active and inactive are the calls of the source. How the source made its calls: active means growth percent below 10; inactive means the rest.
Returns: one label drawn from True (active), False (inactive)

GET /call?item= `Nc1c(C(=O)Nc2cccc3ncccc23)sc2nc3c(cc12)C(=O)CCC3` returns the recorded outcome of this test. False

Record: `N#Cc1c(-c2cccc([N+](=O)[O-])c2)cc(-c2ccc(Nc3nc(Nc4ccc(F)cc4)nc(Nc4ccc(F)cc4)n3)cc2)nc1N` False

Record: `O=C1NC(=O)c2c1c1c3ccccc3[nH]c1c1oc3ccc(F)cc3c21` False

Continuing:
GET /call?item= `COc1ccc(C(C)=O)cc1S(N)(=O)=O` returns the recorded outcome of this test. False

Record: `CCOC(=O)c1c(NC(=O)c2ccc(OC)cc2)sc2c(CN(C)C)c(O)ccc12` False

Record: `O=C1/C(=C/c2ccc(C(F)(F)F)cc2)COc2ccc(O)c(O)c21` False

Record: O=C(CN1C(=O)NC2NC(=O)NC21)N/N=C/c1ccc(Cl)cc1Cl (stereo unspecified) False

Record: `COc1cc(C(=O)c2c(N)ncn2-c2ccccc2)cc(OC)c1OC` False

Record: `Cc1[nH]c(/C=C/C(=O)c2ccc(C(F)(F)F)c(F)c2)c(C)c1C(=O)NCC(C)C` False

Record: `O=C1NC(=O)c2c1c1c3ccccc3[nH]c1c1oc3cc(Br)ccc3c21` False

Record: `COc1ccc2c(c1)c(-c1nc(-c3cn(C)c4ncccc34)cs1)cn2CCO` False

Record: `N=C(N)c1ccc(-c2ccc(-c3ccc(Cl)cc3Cl)s2)cc1F` False

Record: `COc1cc(/C=C\c2cc(/C=C\c3ccc(O)c(OC)c3)n(C(=O)CNc3ccc(Cl)cc3)n2)ccc1O` True

Record: `O=C(Nc1ccccc1O)c1ccccc1Nc1ccnc(C(F)(F)F)c1` False

Record: `CCN(CC)CCCNCc1cc(-c2ccccc2)nc2cc(Cl)ccc12` True

Record: `O=C(Cn1cc(CN2C(=O)c3ccccc3S2(=O)=O)nn1)Nc1cccc(Cl)c1` False

Record: COc1ccc(C2CC(c3ccc(Nc4nc(Nc5ccc(F)cc5)nc(Nc5ccc(F)cc5)n4)cc3)=NN2C(C)=O)cc1 (stereo unspecified) False

Record: `C=CCN=C(N)SCCCCCCSC(N)=NCC=C` False
